Data origin, for the record: ChEMBL document CHEMBL1133584

Task for the reader: assign each of the following compounds its reported pIC50.
Target: Endothelin-converting enzyme 1 (Homo sapiens)
Sequence (P42892 whole entry): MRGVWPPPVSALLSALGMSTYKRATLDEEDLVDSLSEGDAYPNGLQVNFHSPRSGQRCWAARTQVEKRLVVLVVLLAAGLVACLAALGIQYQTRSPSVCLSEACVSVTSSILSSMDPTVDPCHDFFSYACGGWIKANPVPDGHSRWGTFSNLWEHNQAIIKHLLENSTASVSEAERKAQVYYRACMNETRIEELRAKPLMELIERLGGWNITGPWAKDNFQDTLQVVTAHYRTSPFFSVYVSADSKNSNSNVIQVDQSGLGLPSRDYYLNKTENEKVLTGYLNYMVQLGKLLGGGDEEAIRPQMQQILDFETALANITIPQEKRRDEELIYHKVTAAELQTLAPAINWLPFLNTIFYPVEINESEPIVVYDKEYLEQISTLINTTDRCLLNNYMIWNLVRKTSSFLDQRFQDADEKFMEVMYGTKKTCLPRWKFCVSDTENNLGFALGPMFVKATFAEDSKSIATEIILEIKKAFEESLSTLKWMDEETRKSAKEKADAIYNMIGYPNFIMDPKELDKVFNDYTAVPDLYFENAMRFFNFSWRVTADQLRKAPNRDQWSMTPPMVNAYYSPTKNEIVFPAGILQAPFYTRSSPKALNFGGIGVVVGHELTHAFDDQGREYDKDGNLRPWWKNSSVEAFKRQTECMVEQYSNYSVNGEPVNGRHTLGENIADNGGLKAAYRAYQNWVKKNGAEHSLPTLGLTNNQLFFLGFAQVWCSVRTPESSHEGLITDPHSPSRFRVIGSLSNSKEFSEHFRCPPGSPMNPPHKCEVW
Assay: In Vitro inhibition of recombinant human endothelin converting enzyme-1
Numbers only, as −log10 of the molar value.

Use these answered entries as a reference point.
> print(dat)
                                   compound  numeric.result
1  COc1ccc(CCC(N[C@@H](Cc2ccc3c(c2)oc2ccccc23)C(=O)O)P(=O)(O)O)c(OC)c1OC (stereo in doubt; 40l')            6.28
2  O=P(O)(O)C(CCc1cccc2ccccc12)N[C@@H](Cc1ccc2c(c1)oc1ccccc12)c1nnn[nH]1 (stereo in doubt; 43b')            6.36
3  O=C(O)[C@H](Cc1ccc2c(c1)oc1ccccc12)NC(CCc1cccc2ccccc12)P(=O)(O)O (stereo in doubt; 40a')            7.62
4  COc1cccc(CCC(N[C@@H](Cc2ccc3c(c2)oc2ccccc23)C(=O)O)P(=O)(O)O)c1OC (stereo in doubt; 40c)            7.72
5  O=C(O)[C@H](Cc1ccc2c(c1)oc1ccccc12)NCP(=O)(O)O            7.66
6  CC(N[C@@H](Cc1ccc2c(c1)oc1ccccc12)C(=O)O)P(=O)(O)O (stereo in doubt; 40v)            6.74
7  COc1ccc(CCC(N[C@@H](Cc2ccc3c(c2)oc2ccccc23)C(=O)O)P(=O)(O)O)cc1OC (stereo in doubt; 40f ')            6.05
8  O=C(O)C(Cc1ccccc1)NC(=O)[C@H](Cc1ccc2c(c1)oc1ccccc12)NCP(=O)(O)O (some centres not stated)            7.64
9  O=C(O)[C@H](Cc1ccc2c(c1)oc1ccccc12)NC(CCc1cccc2cccnc12)P(=O)(O)O (stereo in doubt; 40n')            6.70

Turning now to a further record.
Find the measured pIC50 of O=P(O)(O)CNC(Cc1ccc2c(c1)oc1ccccc12)c1nnn[nH]1 (configuration not stated) and report it.
8.22
